The measured values listed here are drawn from the supplement of paper PMC6757056.

B1: library; a variant is named by its letters at N, in order (parent)
chain: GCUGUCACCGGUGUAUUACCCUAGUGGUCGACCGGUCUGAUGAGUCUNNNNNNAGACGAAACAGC

- Variants of: B1
- method: FACS-Seq fitted mean relative fluorescence mCherry/BFP with ligand (log10 relative fluorescence); ligand: hypoxanthine (xanthine aptamer); ligand concentration (+) FACS-Seq: 5 mM; higher = higher reporter protein expression
- test-settings: HEK293T, ligand present: yes
A collection of variants and their measured FACS-Seq fitted mean (log10)
readout-type: FACS-Seq fitted mean (log10)

{"columns": ["variant-designation", "recorded-result"],
 "data": [
  ["AAUGUU", 0.605],
  ["ACGAGC", 0.585],
  ["GACGAG", 0.597]
]}
